# Tested on: S. cerevisiae
# Test summary: High-throughput screen of compound archive against S. cerevisiae
# Assay type: cell-based
# Measurement setup: Saccharomyces cerevisiae; validated hit of high-throughput screen
pIC50: −log10 of the molar value.
Measurement kind: pIC50

Any idea what pIC50 was measured for COC(=O)C1CC2c3ccc([N+](=O)[O-])c4c3C(CC2N(C)C1)CN4C(=O)OCC(Cl)(Cl)Cl (stereo not shown) ?
> 4.70

====

Catalogue of compounds with associated MIC
# Test system: C. neoformans ATCC 36556
# Test summary: C. neoformans growth inhibition (CLSI M27-A3 broth microdilution)
# Assay type: cell-based
# Measurement setup: Cryptococcus neoformans, ATCC36556, 72 h, no visible fungal growth, 72 h, triplicate values printed singly; read-out: ATCC36556 MIC-0

// solved cases for MIC follow
INSERT INTO results (compound, system_tested, result) VALUES
  ('COC(=O)[C@@H]1C[C@@H]2c3cc(N)cc4c3[C@H](C[C@H]2N(C)C1)CN4C(C)=O', 'C. neoformans ATCC 36556', '> 50 µg/mL'),
  ('COC(=O)C1CC2c3cccc4c3C(CC2N(C(C)C)C1)CN4C(=O)OC(C)(C)C (centres unmarked)', 'C. neoformans ATCC 36556', '> 50 µg/mL'),
  ('CC(C)N1CC(C(=O)O)CC2c3cccc4c3C(CC21)CN4C(=O)OC(C)(C)C (centres unmarked)', 'C. neoformans ATCC 36556', '> 50 µg/mL'),
  ('COC(=O)[C@@H]1C[C@@H]2c3c([N+](=O)[O-])ccc4c3[C@H](C[C@H]2N(C)C1)CN4C(=O)OCC(Cl)(Cl)Cl', 'C. neoformans ATCC 36556', '50 µg/mL'),
  ('COC(=O)C1CC2c3cc(O)cc4c3C(CC2N(C)C1)CN4C(C)=O (centres unmarked)', 'C. neoformans ATCC 36556', '> 50 µg/mL'),
  ('CN1C[C@H](C(=O)Nc2ccccc2)C[C@@H]2c3c(O)ccc4c3[C@H](C[C@H]21)CN4C(=O)OC(C)(C)C', 'C. neoformans ATCC 36556', '> 50 µg/mL'),
  ('C[C@@H]1[C@H](O)[C@@H](C)/C=C/C=C/C=C/C=C/C=C/C=C/C=C/[C@H](O[C@@H]2O[C@H](C)[C@@H](O)[C@H](N)[C@@H]2O)C[C@@H]2O[C@](O)(C[C@@H](O)C[C@@H](O)[C@H](O)CC[C@@H](O)C[C@@H](O)CC(=O)O[C@H]1C)C[C@H](O)[C@H]2C(=O)O [Amphotericin B, reference compound]', 'C. neoformans ATCC 36556', '0.2 µg/mL'),
  ('COC(=O)C1CC2c3ccc([N+](=O)[O-])c4c3C(CC2N(C)C1)CN4C(=O)OCC(Cl)(Cl)Cl (centres unmarked)', 'C. neoformans ATCC 36556', '50 µg/mL');

Fill in the recorded MIC for this compound, with C. neoformans ATCC 36556 as test system: COC(=O)[C@@H]1C[C@@H]2c3cccc4c3[C@H](C[C@H]2N(C)C1)CN4C(=O)OCC(Cl)(Cl)Cl
50 µg/mL

Fill in the recorded MIC for this compound, with C. neoformans ATCC 36556 as test system: CN1C[C@H](C(=O)Nc2cccc(C(F)(F)F)c2)C[C@@H]2c3cccc4c3[C@H](C[C@H]21)CN4C(=O)OC(C)(C)C
6.25 µg/mL

Fill in the recorded MIC for this compound, with C. neoformans ATCC 36556 as test system: COC(=O)[C@@H]1C[C@@H]2c3cc(F)cc4c3[C@H](C[C@H]2N(C)C1)CN4C(C)=O
> 50 µg/mL

Fill in the recorded MIC for this compound, with C. neoformans ATCC 36556 as test system: CN1CC(C(=O)O)CC2c3cccc4c3C(CC21)CN4C(=O)OCc1ccccc1 (centres unmarked)
> 50 µg/mL

Fill in the recorded MIC for this compound, with C. neoformans ATCC 36556 as test system: COC(=O)[C@@H]1C[C@@H]2c3cc([N+](=O)[O-])cc4c3[C@@H](CN4)C[C@H]2N(C)C1
> 50 µg/mL

Fill in the recorded MIC for this compound, with C. neoformans ATCC 36556 as test system: COC(=O)C1CC2c3cccc4c3C(CC2N(C)C1)CN4C=O (centres unmarked)
> 50 µg/mL
